Biological target: T1, AAV8 (adeno-associated virus serotype 8)
T1 construct: also called adeno-associated virus serotype 8
Test: SPR, AAV on CM5 chip;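 further: surface plasmon resonance with AAV amine-coupled to the chip as ligand, nanobodies injected as analyte over a concentration series, rate constants and affinity fitted from binding curves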
propertyName: log10(kon) (log10 of the value in M⁻¹ s⁻¹)
The common logarithm of kon in M⁻¹ s⁻¹ is what is listed.

Field: example entries. Status: answers known.
A4-111 (VHH) VHH: VQLQESGGGLAQPGGSLRLSCAASGSNFSINTMGWYRQRAGKQREFVATITRGGSTNYGDSVKGRFTISRDNAKTTVYLQMNSLRPEDTAVYYCHLDEVRESTWTTSNLWGQGTQVTVSS; 4.87
A4-108 (VHH) VHH: VQLQESGGGLAQPGGSLRLSCLASGSGFSINTMGWYRQAPPKWRELVATVTRGGSTNYAGSVKGRFTISRDNPKNTVYLQMNSLRPEDTAVYYCHLDEVRQSTWTTSNIWGQGTQVTVSS; 5.03

Now take the following binder into account.
Query: Given A4-112 (VHH) VHH: VQLQESGGGLVQTGGSLRLSCIASGSIFSINTVGWYRQAPPKQRELVATVTRAGSTWYAGSVKGRFTISRDNAKNTIYLQMNTLRPEDTAVYYCHVDEVRQSTWTTSNIWGQGTQVTVSS , state its recorded log10(kon).
Result: 5.27
